# experiment.summary: Photostability in ethanol under artificial sunlight (12,000 lx), LC-MS/MS
# Format: physicochemical
# cond: ethanol solution in quartz cells, 1 µM in ethanol, artificial sunlight 12,000 lx, 25 °C; read-out: half-life (t1/2) of degradation (converted)
experimental.endpoint: half-life at 1 µM (min)
Write down the numeric answer in min and omit the unit.

These solved cases illustrate the format of a correct answer.
molecule: CC(C)=CCC/C(C)=C/CC/C(C)=C/CC/C(C)=C/CC1=C(C)C(=O)c2ccccc2C1=O [MK-4, menaquinone-4, reference compound]
scale.unit: min
readout.value: 5.04

molecule: CC(C)=CCC/C(C)=C/CC/C(C)=C/CC/C(C)=C/Cc1c(C)c(OC(=O)CCC(=O)O)c2ccccc2c1OC(=O)CCC(=O)O [MKH-SUC, menahydroquinone-4 1,4-bis-hemisuccinate]
scale.unit: min
readout.value: 14.9

// moving on: another record for half-life at 1 µM
half-life at 1 µM in this record for CC(C)=CCC/C(C)=C/CC/C(C)=C/CC/C(C)=C/Cc1c(C)c(OC(=O)CN(C)C)c2ccccc2c1OC(=O)CN(C)C [MKH-DMG] : 249
